Assay: CaMKII Cell-Based Activity: CaMKII activity in neonatal rat ventricular myocytes (NRVM) was measured by monitoring the phosphorylation level of phospholamban using high-content imaging. NRVMs were plated in a clear bottom 384-well plate in medium supplemented with 10% fetal bovine serum (FBS) and incubated at 37° C., 5% CO2 overnight. The medium was changed to a serum-free medium and compounds were dosed to the cells. The cells were incubated at 37° C., 5% CO2 for 4 hours and were then treated with 100 nM ATX-II (Alomone Labs) to activate CaMKII. 10 minutes after the addition of ATX-II, the cells were fixed with 4% formaldehyde followed by permeabilization with 0.1% triton X100. The fixed cells were stained with an anti-phospho-phospholamban primary antibody (Santa Cruz Biotechnology) and an Alexa488-labeled anti-rabbit IgG secondary antibody (Life Technologies Corporation) as well as Hoechst 33342 (Life Technologies Corporation). The cells were imaged using an ArrayScan VTI (Cellomics) and analyzed for cells containing a positive fluorescent signal at 485 nm, reported as % responder. The % responders were plotted against the compound concentration to determine the compounds EC50.
pEC50: −log10 of the molar value.
readout_type: pEC50

Incoming: For `CCN[C@@H](C)CNC(=O)c1cc(C)nc(-c2cnn3ccc(-c4ccccc4)nc23)c1` , write its pEC50.
Outgoing: 6.55

Incoming: For CC(C)C(CNC(=O)c1ccnc(-c2cnn3ccc(-c4ccccc4)nc23)c1)NCC1CC1 (stereo not drawn) , write its pEC50.
Outgoing: 7.05

Incoming: For `CCN(CC)[C@@H](C)CNC(=O)c1cc(-c2cnn3ccc(-c4cccs4)nc23)nc(N2CC(CO)C2)c1` , write its pEC50.
Outgoing: 7.67

(A) CC1(C)CNC1CNC(=O)c1ccnc(-c2cnn3ccc(-c4ccccc4)nc23)c1 (stereo not drawn)
(B) CCN(CC)[C@@H](C)CNC(=O)c1cc(NC2CC2)nc(-c2cnn3ccc(-c4cccs4)nc23)c1
(C) CCN(CC)[C@@H](C)CNC(=O)c1cc(OCC2(C)COC2)nc(-c2cnn3ccc(-c4cccs4)nc23)c1
(D) CC[C@@]1(CNC(=O)c2ccnc(-c3cnn4ccc(-c5ccccc5)nc34)c2)CCCN1
Incoming: Rank descending by pEC50. Quick reminder: the answer is the labels in the order asked.
Outgoing: B, C, A, D

(1) COC1CN(c2cc(C(=O)NC[C@H](C)N)cc(-c3cnn4ccc(-c5cccs5)nc34)n2)C1
(2) CCN(CC)[C@@H](C)CNC(=O)c1ccnc(-c2cnn3ccc(-c4ccccc4)nc23)c1
Incoming: Select the item with the higher value of pEC50 from the options 1 and 2 listed. Answer by quoting the chosen item's label.
Outgoing: 2
(2: 7.54, 1: 6.86)

(A) COC1CN(c2cc(C(=O)NC[C@H](C)N)cc(-c3cnn4ccc(-c5ccccc5)nc34)n2)C1
(B) CCN(CC)c1cc(C(=O)NC[C@H](C)N(CC)CC)cc(-c2cnn3ccc(-c4cccs4)nc23)n1
Incoming: Would you mind telling me which has the lower recorded pEC50 between A and B ? Answer by quoting the chosen item's label.
Outgoing: A

(P) C[C@@H]1CNCCN1C(=O)c1ccnc(-c2cnn3ccc(-c4cccs4)nc23)c1
(Q) CCNc1cc(C(=O)NC[C@H](C)N(CC)CC)cc(-c2cnn3ccc(-c4cccs4)nc23)n1
Incoming: Would you mind telling me which has the lower recorded pEC50 between P and Q ? Answer by quoting the chosen item's label.
Outgoing: P

(A) CCN(CC)[C@@H](C)CNC(=O)c1cc(-c2cnn3ccc(-c4cccs4)nc23)nc(N2CC(O)(CC)C2)c1
(B) O=C(c1ccnc(-c2cnn3ccc(-c4ccccc4)nc23)c1)N1CCCC[C@@H]1[C@@H]1CCCN1
(C) CCN(CC)[C@@H](C)CNC(=O)c1cc(-c2cnn3ccc(-c4cccs4)nc23)nc(N2CC[C@H]2C(=O)Nc2nccs2)c1
(D) CCN(CC)[C@@H](C)CNC(=O)c1cc(-c2cnn3ccc(-c4cccs4)nc23)nc(N2CC(F)(F)C(F)(F)C2)c1
Incoming: Hi! Can you put these in order of pEC50, lowest number first? Quick reminder: the answer is the labels in the order asked.
Outgoing: C, D, A, B
(C: 6.90, D: 7.21, A: 7.61, B: 8.17)

###

Experiment: CaMKII Cell-Based Activity: CaMKII activity in neonatal rat ventricular myocytes (NRVM) was measured by monitoring the phosphorylation level of phospholamban using high-content imaging. NRVMs were plated in a clear bottom 384-well plate in medium supplemented with 10% fetal bovine serum (FBS) and incubated at 37° C., 5% CO2 overnight. The medium was changed to a serum-free medium and compounds were dosed to the cells. The cells were incubated at 37° C., 5% CO2 for 4 hours and were then treated with 100 nM ATX-II (Alomone Labs) to activate CaMKII. 10 minutes after the addition of ATX-II, the cells were fixed with 4% formaldehyde followed by permeabilization with 0.1% triton X100. The fixed cells were stained with an anti-phospho-phospholamban primary antibody (Santa Cruz Biotechnology) and an Alexa488-labeled anti-rabbit IgG secondary antibody (Life Technologies Corporation) as well as Hoechst 33342 (Life Technologies Corporation). The cells were imaged using an ArrayScan VTI (Cellomics) and analyzed for cells containing a positive fluorescent signal at 485 nm, reported as % responder. The % responders were plotted against the compound concentration to determine the compounds EC50.
pEC50: −log10 of the molar value.
readout_type: pEC50

Consider the reported pEC50 for these molecules:
Incoming: For `CCN(CC)[C@@H](C)CNC(=O)c1cc(NCCN2CCOCC2)nc(-c2cnn3ccc(-c4cccs4)nc23)c1` , write its pEC50.
Outgoing: 7.56

Incoming: For `CCN[C@@H](C)CNC(=O)c1cc(N)nc(-c2cnn3ccc(-c4ccccc4)nc23)c1` , write its pEC50.
Outgoing: 6.95

(I) CCN(CC)[C@@H](C)CNC(=O)c1cc(NCC2(N3CCCC3)COC2)nc(-c2cnn3ccc(-c4cccs4)nc23)c1
(II) CCN(CC)[C@@H](C)CNC(=O)c1cc(-c2cnn3ccc(-c4cccs4)nc23)nc(N2CC(NC(=O)N(C)C)C2)c1
Incoming: Select the item with the higher value of pEC50 from the options I and II listed. Answer by quoting the chosen item's label.
Outgoing: II

###

Test: CaMKII Cell-Based Activity: CaMKII activity in neonatal rat ventricular myocytes (NRVM) was measured by monitoring the phosphorylation level of phospholamban using high-content imaging. NRVMs were plated in a clear bottom 384-well plate in medium supplemented with 10% fetal bovine serum (FBS) and incubated at 37° C., 5% CO2 overnight. The medium was changed to a serum-free medium and compounds were dosed to the cells. The cells were incubated at 37° C., 5% CO2 for 4 hours and were then treated with 100 nM ATX-II (Alomone Labs) to activate CaMKII. 10 minutes after the addition of ATX-II, the cells were fixed with 4% formaldehyde followed by permeabilization with 0.1% triton X100. The fixed cells were stained with an anti-phospho-phospholamban primary antibody (Santa Cruz Biotechnology) and an Alexa488-labeled anti-rabbit IgG secondary antibody (Life Technologies Corporation) as well as Hoechst 33342 (Life Technologies Corporation). The cells were imaged using an ArrayScan VTI (Cellomics) and analyzed for cells containing a positive fluorescent signal at 485 nm, reported as % responder. The % responders were plotted against the compound concentration to determine the compounds EC50.
pEC50: −log10 of the molar value.
readout_type: pEC50

Incoming: For `CCN(CC)[C@@H](C)CNC(=O)c1cc(NC(=O)C2CC2)nc(-c2cnn3ccc(-c4cccs4)nc23)c1` , write its pEC50.
Outgoing: 7.56

(I) Cc1cc(C(=O)N2CCCC[C@@H]2CN)cc(-c2cnn3ccc(-c4ccccc4)nc23)n1
(II) CCN(CC)[C@@H](C)CNC(=O)c1cc(-c2cnn3ccc(-c4ccncc4)nc23)nc(N2CC(OC)C2)c1
(III) CCN(CC)[C@@H](C)CNC(=O)c1cc(-c2cnn3ccc(-c4cccs4)nc23)nc(N2CC[C@H]2C(=O)N2CCCC2)c1
Incoming: Rank descending by pEC50. Quick reminder: the answer is the labels in the order asked.
Outgoing: III, I, II

(A) CCN(CC)[C@@H](C)CNC(=O)c1cc(-c2cnn3ccc(-c4cccs4)nc23)nc(N2CC[C@@H](N)C2)c1
(B) CCN(CC)[C@@H](C)CNC(=O)c1cc(-c2cnn3ccc(-c4cccs4)nc23)nc(N(C)S(C)(=O)=O)c1
(C) CCN(CC)[C@@H](C)CNC(=O)c1cc(-c2cnn3ccc(-c4cccs4)nc23)nc(N2CC(C)(O)C2)c1
Incoming: Hi! Can you put these in order of pEC50, lowest number first? Quick reminder: the answer is the labels in the order asked.
Outgoing: A, C, B
(A: 7.16, C: 7.67, B: 8.02)

###

Assay: CaMKII Cell-Based Activity: CaMKII activity in neonatal rat ventricular myocytes (NRVM) was measured by monitoring the phosphorylation level of phospholamban using high-content imaging. NRVMs were plated in a clear bottom 384-well plate in medium supplemented with 10% fetal bovine serum (FBS) and incubated at 37° C., 5% CO2 overnight. The medium was changed to a serum-free medium and compounds were dosed to the cells. The cells were incubated at 37° C., 5% CO2 for 4 hours and were then treated with 100 nM ATX-II (Alomone Labs) to activate CaMKII. 10 minutes after the addition of ATX-II, the cells were fixed with 4% formaldehyde followed by permeabilization with 0.1% triton X100. The fixed cells were stained with an anti-phospho-phospholamban primary antibody (Santa Cruz Biotechnology) and an Alexa488-labeled anti-rabbit IgG secondary antibody (Life Technologies Corporation) as well as Hoechst 33342 (Life Technologies Corporation). The cells were imaged using an ArrayScan VTI (Cellomics) and analyzed for cells containing a positive fluorescent signal at 485 nm, reported as % responder. The % responders were plotted against the compound concentration to determine the compounds EC50.
readout_type: EC50 (µM)

Consider the reported EC50 for these molecules:
Incoming: For CCCC(N)CNC(=O)c1ccnc(-c2cnn3ccc(-c4ccccc4)nc23)c1 (stereo not drawn) , write its EC50.
Outgoing: 0.0118

Incoming: For `COC1CN(c2cc(C(=O)NC[C@@H]3CCCN3C)cc(-c3cnn4ccc(-c5cccs5)nc34)n2)C1` , write its EC50.
Outgoing: 0.326

Incoming: For `NC[C@H]1CCCCN1C(=O)c1cc(-c2cnn3ccc(-c4ccccc4)nc23)nc(C(F)(F)F)c1` , write its EC50.
Outgoing: 0.0652

Incoming: For `N[C@H]1CCN(C(=O)c2ccnc(-c3cnn4ccc(-c5ccccc5)nc34)c2)C1` , write its EC50.
Outgoing: 0.2

Incoming: For `CN(C)c1cc(C(=O)N2CCCC[C@H]2CN)cc(-c2cnn3ccc(-c4ccccc4)nc23)n1` , write its EC50.
Outgoing: 0.418

(1) CCN(CC)[C@@H](C)CNC(=O)c1cc(-c2cnn3ccc(-c4cccs4)nc23)nc(N2C[C@@H]3C[C@H]2CO3)c1
(2) N[C@@H]1CCC[C@@H]1NC(=O)c1ccnc(-c2cnn3ccc(-c4ccccc4)nc23)c1
Incoming: Would you mind telling me which has the lower recorded EC50 between 1 and 2 ? Answer by quoting the chosen item's label.
Outgoing: 2
(2: 0.303 µM, 1: 0.514 µM)

Origin of values: ChEMBL document CHEMBL5725801
